Numbers sourced from PubChem BioAssay (NCI).

Test system: OVCAR-4 ovarian
Experiment: NCI-60 one-dose screen, 48 h (100 = growth as untreated, 0 = no growth, -100 = all killed)
Conditions: 10 µM unless noted
Compounds without any hit were thinned out: in the full panel of roughly 83,000, 20% have a hit.
value_kind: growth (%)
Numeric only. Scale: %

State the recorded growth for this entry: Oc1c(I)cc(I)cc1CNCCCN(Cc1ccccn1)Cc1ccccn1
-94.3

State the recorded growth for this entry: c1ccc2cc(C[n+]3ccn(CCCCCCCCCCCCn4cc[n+](Cc5ccc6ccccc6c5)c4)c3)ccc2c1
-60.1

State the recorded growth for this entry: Cc1c(C(=O)N[C@@H](Cc2ccccc2)C(=O)C(=O)NCc2ccc(F)cc2)[nH]c2ccccc2c1=O
90.6

State the recorded growth for this entry: COc1ccc(-c2[nH]c3ccc(OC)cc3c2/C=C(\C#N)S(=O)(=O)c2ccccc2)cc1
-20.8

State the recorded growth for this entry: CCOC(=O)c1cn2ncnc(Oc3ccc(NC(=O)NCCN(CC)CC)c(Cl)c3)c2c1C
90.3

State the recorded growth for this entry: Cc1cc(=O)oc2cc(OC(=O)CN3CCN(C)CC3)ccc12
96.6

State the recorded growth for this entry: COc1cc(C(=O)N/N=C/c2cc3cc(OCc4ccccc4)ccc3nc2OC)cc(OC)c1OC
63.4

State the recorded growth for this entry: COc1ccc(/C=C/c2c(C(=O)/C=C/c3ccc(Cl)cc3)c(C)nc3ccccc23)cc1
40.6

State the recorded growth for this entry: CCOC(=O)/C(C#N)=C\Nc1ccc2ncnc(Nc3ccc(Cl)cc3Cl)c2c1
95.1

###

Tested on: U251 CNS
Test: NCI-60 one-dose screen, 48 h (100 = growth as untreated, 0 = no growth, -100 = all killed)
Details: 10 µM unless noted
Experimental: Growth inhibition of the U251 human tumor cell line is measured as a screen for anti-cancer activity. Cells are grown in 96 well plates and exposed to the test compound for 48 hours. Compounds are tested at a single concentration, which is 10^-5 M for most compounds. The reported endpoint is percent growth (GI% or GIPRCNT), where numbers from 0 - 100% represent growth inhibition, and numbers from -100% - 0 represent cell death. For example, a value of 40 represents 60% growth inhibition. […]
The panel holds about 83,000 compounds, 20% with a hit somewhere; the sample as a whole holds those more often.
I would appreciate it if you labelled entries T when growth is 90% or higher, otherwise F.

Exam item: decide whether the reported growth for COc1cccc(OC)c1C(=O)N[C@@H]1C(=O)N2[C@@H]1SC(C)(C)[C@@H]2C(=O)O is at least 90%.
T

Exam item: decide whether the reported growth for CCOC(=O)c1cn2ncnc(Oc3ccc(NC(=O)NCCN(C)C)c(Cl)c3)c2c1C is at least 90%.
F

Exam item: decide whether the reported growth for NC1CCN(c2nc(Nc3cccc(C(F)(F)F)c3)c3c(=O)[nH]ccc3n2)CC1 is at least 90%.
F

Exam item: decide whether the reported growth for Cc1nc2ccccc2c(/C=C/c2ccccc2)c1C(=O)/C=C/c1ccc(C(F)(F)F)cc1 is at least 90%.
F

Exam item: decide whether the reported growth for CC1(C)C2CC1C1(/C=N\Nc3ccccc3)C(C2)C(C#N)(C#N)C1(C#N)C#N (centres undefined) is at least 90%.
T

Exam item: decide whether the reported growth for Cn1cc(-c2cc3ncnc(Nc4ccc(CC(=O)Nc5cc(C(C)(C)C)on5)cc4)c3s2)cn1 is at least 90%.
F

Exam item: decide whether the reported growth for CN(C)CCCNc1nc2ccccc2c2c(=O)c3cc(F)ccc3sc12 is at least 90%.
F

Exam item: decide whether the reported growth for CC(=O)O.CN1[CH-]N(Cc2ccc(C#N)cc2)c2ccccc21.[Ag+] is at least 90%.
T

Exam item: decide whether the reported growth for CCCCNc1nc(NN2C(=O)c3cccc4cccc(c34)C2=O)nc(-n2cnc3ccccc32)n1 is at least 90%.
F

Exam item: decide whether the reported growth for CCc1ccc2nc(NC(=O)Cc3csc(NC(=O)c4ccco4)n3)sc2c1 is at least 90%.
F

Exam item: decide whether the reported growth for Nc1cc2c(cc1Br)-c1cc(Cl)ccc1C2=O is at least 90%.
T
